Target: canine TRPM8 (Canis lupus familiaris, UniProt Q1A7N1)
Construct: expressed in transfected cells
Sequence (Q1A7N1 1-1104): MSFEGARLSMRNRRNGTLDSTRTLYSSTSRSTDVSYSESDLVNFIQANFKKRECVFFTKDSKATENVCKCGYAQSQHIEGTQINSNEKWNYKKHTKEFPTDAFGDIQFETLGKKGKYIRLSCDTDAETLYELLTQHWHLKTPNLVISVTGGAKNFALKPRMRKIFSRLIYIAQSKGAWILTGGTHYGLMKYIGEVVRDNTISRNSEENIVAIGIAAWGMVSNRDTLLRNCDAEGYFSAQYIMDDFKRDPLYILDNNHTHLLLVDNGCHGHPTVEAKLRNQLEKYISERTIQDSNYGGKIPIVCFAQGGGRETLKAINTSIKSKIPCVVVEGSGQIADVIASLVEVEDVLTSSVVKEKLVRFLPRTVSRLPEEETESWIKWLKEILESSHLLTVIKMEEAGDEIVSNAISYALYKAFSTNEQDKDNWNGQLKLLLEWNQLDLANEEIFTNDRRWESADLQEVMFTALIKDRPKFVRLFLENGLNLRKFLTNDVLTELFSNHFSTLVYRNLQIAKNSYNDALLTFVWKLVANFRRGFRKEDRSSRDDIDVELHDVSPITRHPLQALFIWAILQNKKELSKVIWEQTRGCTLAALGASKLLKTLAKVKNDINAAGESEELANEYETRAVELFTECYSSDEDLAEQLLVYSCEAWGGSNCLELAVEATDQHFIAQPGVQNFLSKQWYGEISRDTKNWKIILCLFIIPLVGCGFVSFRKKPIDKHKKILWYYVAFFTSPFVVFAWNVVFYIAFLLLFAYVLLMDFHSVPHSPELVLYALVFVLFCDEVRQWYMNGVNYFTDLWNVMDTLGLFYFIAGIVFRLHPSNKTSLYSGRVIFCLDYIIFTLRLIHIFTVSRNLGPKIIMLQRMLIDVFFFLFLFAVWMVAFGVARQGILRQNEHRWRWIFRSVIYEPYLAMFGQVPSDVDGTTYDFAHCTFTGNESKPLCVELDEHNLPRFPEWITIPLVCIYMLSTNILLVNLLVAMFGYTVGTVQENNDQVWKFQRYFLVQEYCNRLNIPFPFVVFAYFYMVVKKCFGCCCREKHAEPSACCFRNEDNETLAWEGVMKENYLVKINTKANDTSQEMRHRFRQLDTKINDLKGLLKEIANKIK
Assay: In Vitro Canine TRPM8 Functional Assay (Ca2+ fluorescence, icilin activation)
Assay type: cell-based
Settings: HEK293, 0.5 μM compound; canine TRPM8 HEK293; icilin
endpoint.name: inhibition at 0.5 µM (%)

O=C(C(Nc1cccc(F)c1F)c1ccc(Cl)cc1)N1CCCC1c1ccccc1 (centres unmarked) [Cpd 168]    97
O=C(C(Nc1ccccc1F)c1ccc(C(F)(F)F)cc1)N1CCc2ccccc21 (centres unmarked) [Cpd 36]    90.7
O=C(C(Nc1ccccc1)c1ccc(C(F)(F)F)cc1)N1CCCC1c1ccccc1C(F)(F)F (single isomer, unassigned) [Cpd 30]    103
O=C(C(Nc1ccccc1F)c1ccc(C(F)(F)F)cc1)N1CCCC1c1cccc(F)c1 (centres unmarked) [Cpd 132]    99
O=C(C(Nc1ccc(F)cc1)c1ccc(Cl)cc1)N1CCCC1c1ccccc1Cl (centres unmarked) [Cpd 116]    98
CC(C)(C)c1ccc(C(Nc2ccccc2)C(=O)N2CCCC2c2ccccn2)cc1 (centres unmarked) [Cpd 55]    99.9
O=C(C(Nc1ccccc1F)c1ccc(C(F)(F)F)cc1)N1CCc2ccccc2C1 (centres unmarked) [Cpd 65]    100
O=C(C(Nc1ccccc1)c1ccc(C(F)(F)F)cc1)N1CCCC1c1ccccc1Cl (single isomer, unassigned) [Cpd 21]    103

----------
Molecular target: canine TRPM8 (Canis lupus familiaris)
Experiment: In Vitro Canine TRPM8 Functional Assay (Ca2+ fluorescence, icilin activation)
Conditions: HEK293 cells stably expressing canine TRPM8; icilin activation; Ca2+ fluorescence
pIC50: −log10 of the molar value.
endpoint.name: pIC50

Some molecules with recorded pIC50:
Cc1ccccc1C1CCCN1C(=O)C(Nc1ccccc1)c1ccc(C(F)(F)F)cc1 (centres unmarked)    7.51
COc1ccccc1C1CCCN1C(=O)C(Nc1ccccc1F)c1ccc(C(F)(F)F)cc1 (centres unmarked)    7.92
O=C(C(Nc1ccc(F)cc1F)c1ccc(Cl)cc1)N1CCCC1c1ccccc1 (centres unmarked)    7.21
CN(C)c1ccc(C2CCCN2C(=O)C(Nc2ccccc2F)c2ccc(Cl)cc2)cc1 (centres unmarked)    6.96
O=C(C(Nc1ccccc1)c1ccc(C(F)(F)F)cc1)N1CCCC1c1ccccc1Cl (single isomer, unassigned) [Cpd 22]    6.42

[A] CC(C)(C)c1ccc(C(Nc2ccccc2)C(=O)N2CCc3ccccc32)cc1 (centres unmarked)
[B] O=C(C(Nc1ccc(F)cc1F)c1ccc(Cl)cc1)N1CCCC1c1ccccc1Cl (centres unmarked)
[C] O=C(C(Nc1ccccc1F)c1cc2ccccc2s1)N1CCCC1c1ccccc1F (mixture of isomers) [Cpd 245]
List from greatest to least pIC50. Please express your ranking as an ordered list of the labels.
C, B, A

----------
Target: canine TRPM8 (Canis lupus familiaris, UniProt Q1A7N1)
Construct: expressed in transfected cells
Experiment: In Vitro Canine TRPM8 Functional Assay (Ca2+ fluorescence, icilin activation)
Assay type: cell-based
Conditions: HEK293, 0.2 μM compound; canine TRPM8 HEK293; icilin
endpoint.name: inhibition at 0.2 µM (%)

O=C(C(Nc1ccccc1F)c1ccc(-n2ccnc2)cc1)N1CCCC1c1ccccc1F (stereo not shown)    99
O=C([C@H](Nc1c(F)cccc1F)c1ccc(Br)cc1)N1[C@H](CO)CC[C@@H]1c1ccccc1 (single isomer, unassigned)    88
O=C(C(Cc1c(F)cccc1F)c1ccc(C(F)(F)F)cc1)N1CCCC1c1ccccc1F (stereo not shown)    98
O=C(C(Nc1cc(F)ccc1F)c1ccc(Cl)cc1)N1CCCC1c1ccccc1Cl (stereo not shown)    98
